Tested on: OVCAR-3 ovarian
assay_text: NCI-60 one-dose screen, 48 h
condition_label: 10 µM unless noted
This is part of a sample that, as a whole, favours compounds with a hit. Of some 83,000 tested, about 20% had one in any assay. Activity calls are given as the source filed them. Rule for the calls: active = growth percent below 10; inactive = the rest.
Log the outcome using a class from 1 (yes) (active), 0 (no) (inactive)

compound	cat
CC(=O)N1N=C(c2ccc(C)cc2)CC1c1cn(-c2ccccc2)nc1-c1cccc(Nc2ccnc3cc(Cl)ccc23)c1 (centres undefined)	0 (no)
C#CC[C@@H]1C[C@]2(C)[C@H]3CC=C4[C@H]5[C@@H](C)[C@H](C)CC[C@]5(C(=O)NCCCN5CCN(CCCN)CC5)CC[C@@]4(C)[C@]3(C)CC[C@H]2C(C)(C)[C@H]1OC(C)=O	1 (yes)
COc1cc(C2CC(c3ccc(Nc4ccnc5cc(Cl)ccc45)cc3)=NN2c2ccccc2)cc(OC)c1OC (centres undefined)	0 (no)

Exercise: Test call, this compound: O=C(Nc1cccc(Cl)c1)Nc1cc(C(F)(F)F)ccc1Cl
Solution: 0 (no)
